Biological target: Gal(b1-4)GlcNAc(b1-3)GalNAc
Assay: glycan array binding signal (z-score within array); higher = stronger binding
Details: glycan notation: IUPAC condensed, linker removed
This is one part of a sample in which the strongest signals are shown more often than they occur.
MEASURE_NAME: glycan array binding signal (z-score)

[[record]]
binder = "RSVL (Crotalus atrox), P21963 (protein) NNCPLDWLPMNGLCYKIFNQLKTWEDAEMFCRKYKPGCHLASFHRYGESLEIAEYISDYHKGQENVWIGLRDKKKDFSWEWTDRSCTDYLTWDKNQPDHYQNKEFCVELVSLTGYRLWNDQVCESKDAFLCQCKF"
numeric_readout = -0.171

[[record]]
binder = "BSR4 (Toxoplasma gondii), Q95NL6 (protein) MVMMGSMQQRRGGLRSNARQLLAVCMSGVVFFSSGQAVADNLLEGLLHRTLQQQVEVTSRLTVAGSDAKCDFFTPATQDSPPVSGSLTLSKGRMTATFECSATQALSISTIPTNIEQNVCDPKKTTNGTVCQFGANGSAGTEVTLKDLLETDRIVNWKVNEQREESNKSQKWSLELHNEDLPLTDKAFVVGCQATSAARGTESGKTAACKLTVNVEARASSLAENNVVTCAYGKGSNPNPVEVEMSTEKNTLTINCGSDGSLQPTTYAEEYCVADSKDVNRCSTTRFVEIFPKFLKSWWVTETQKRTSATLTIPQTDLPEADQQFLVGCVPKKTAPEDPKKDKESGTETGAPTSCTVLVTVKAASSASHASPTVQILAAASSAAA"
numeric_readout = 0.454

